Sourced from ChEMBL document CHEMBL3526113

# measurement-protocol: Unbound fraction in plasma (unknown origin) at pH 7.4 after 6 hrs by equilibrium dialysis method in presence of 5% CO2
# Type: ADME, cell-free
Listing of recorded fraction unbound at 6 h by entry.
Please respond with just the number, no unit label.

# molecule, fraction unbound at 6 h
data = [
    ("COc1ccc([C@@H]2Sc3ccccc3N(CCN(C)C)C(=O)[C@@H]2OC(C)=O)cc1", 0.349),
    ("Cc1ncc2n1-c1ccc(Cl)cc1C(c1ccccc1F)=NC2", 0.036),
    ("Fc1ccc([C@@H]2CCNC[C@H]2COc2ccc3c(c2)OCO3)cc1", 0.099),
    ("CC(CN(C)C)CN1c2ccccc2CCc2ccccc21 (centres undefined)", 0.054),
    ("CN(C)CCCN1c2ccccc2CCc2ccccc21", 0.181),
]

# input Please supply the value of reported fraction unbound at 6 h for the item N[C@@H]1C[C@H]1c1ccccc1.N[C@H]1C[C@@H]1c1ccccc1 (racemic)
# output 0.612

# input Please supply the value of reported fraction unbound at 6 h for the item O=C(CCCN1CCC(O)(c2ccc(Cl)cc2)CC1)c1ccc(F)cc1
# output 0.161

# input Please supply the value of reported fraction unbound at 6 h for the item NC(=O)N1c2ccccc2C=Cc2ccccc21 [CARBAMAZEPINE]
# output 0.291

# input Please supply the value of reported fraction unbound at 6 h for the item CN1CCN(C2=Nc3cc(Cl)ccc3Nc3ccccc32)CC1
# output 0.081

###

# measurement-protocol: Unbound fraction in plasma (unknown origin) under normal atmospheric condition at pH 7.22 after 6 hrs by equilibrium dialysis method
# Format: ADME, cell-free
Rule: fraction unbound at 6 h under 0.2 gives 0.0, otherwise 1.0.

# count of solved cases: 2
# compound, cat
data = [
    ("CN1CCN2c3ncccc3Cc3ccccc3C2C1 (centres undefined)", 1.0),
    ("CC(CN(C)C)CN1c2ccccc2CCc2ccccc21 (centres undefined)", 0.0),
]

# next compound below
# input Evaluate Cc1nc2n(c(=O)c1CCN1CCC(c3noc4cc(F)ccc34)CC1)CCCC2 : fraction unbound at 6 h at minimum 0.2?
# output 1.0

###

# measurement-protocol: Unbound fraction in plasma (unknown origin) under normal atmospheric condition at pH 7.72 after 6 hrs by equilibrium dialysis method
# Format: ADME, cell-free
Listing of recorded fraction unbound at 6 h by entry.
Please respond with just the number, no unit label.

// below: answered molecules
# molecule, fraction unbound at 6 h
data = [
    ("Fc1ccc([C@@H]2CCNC[C@H]2COc2ccc3c(c2)OCO3)cc1 [PAROXETINE]", 0.074),
    ("N[C@@H]1C[C@H]1c1ccccc1.N[C@H]1C[C@@H]1c1ccccc1 (racemic) [TRANYLCYPROMINE]", 0.49),
    ("CCN(CC)C(=O)C1(c2ccccc2)CC1CN (stereo unspecified)", 0.828),
]

# input Please supply the value of reported fraction unbound at 6 h for the item Cc1ncc2n1-c1ccc(Cl)cc1C(c1ccccc1F)=NC2 [MIDAZOLAM]
# output 0.019

# input Please supply the value of reported fraction unbound at 6 h for the item COc1ccc([C@@H]2Sc3ccccc3N(CCN(C)C)C(=O)[C@@H]2OC(C)=O)cc1 [DILTIAZEM]
# output 0.298

###

# measurement-protocol: Unbound fraction in plasma (unknown origin) under normal atmospheric condition at pH 7.22 after 6 hrs by equilibrium dialysis method
# Format: ADME, cell-free
assay-metric: fraction unbound at 6 h

// below: answered compounds
# compound, fraction unbound at 6 h
rows = [
    ("CCn1nc(C(=O)O)c(=O)c2cc3c(cc21)OCO3", 0.251),
    ("Fc1ccc([C@@H]2CCNC[C@H]2COc2ccc3c(c2)OCO3)cc1", 0.136),
    ("CN1CCN(C2=Nc3cc(Cl)ccc3Nc3ccccc32)CC1", 0.101),
]

# input Please supply the value of reported fraction unbound at 6 h for the item CN(C)CCCN1c2ccccc2CCc2ccccc21
# output 0.22

# input Please supply the value of reported fraction unbound at 6 h for the item COc1ccc([C@@H]2Sc3ccccc3N(CCN(C)C)C(=O)[C@@H]2OC(C)=O)cc1
# output 0.417

# input Please supply the value of reported fraction unbound at 6 h for the item COC(=O)C1=C(C)NC(C)=C(C(=O)OCCN(C)Cc2ccccc2)C1c1cccc([N+](=O)[O-])c1 (stereo unspecified)
# output 0.008

###

# measurement-protocol: Unbound fraction in plasma (unknown origin) under normal atmospheric condition at pH 7.72 after 6 hrs by equilibrium dialysis method
# Format: ADME, cell-free
assay-metric: fraction unbound at 6 h
Please respond with just the number, no unit label.

// below: answered molecules
# molecule, fraction unbound at 6 h
data = [
    ("NC(=O)N1c2ccccc2C=Cc2ccccc21 [CARBAMAZEPINE]", 0.299),
    ("CN1CCN(C2=Nc3cc(Cl)ccc3Nc3ccccc32)CC1", 0.042),
    ("COC(=O)C1=C(C)NC(C)=C(C(=O)OCCN(C)Cc2ccccc2)C1c1cccc([N+](=O)[O-])c1 (stereo unspecified)", 0.003),
    ("CCn1nc(C(=O)O)c(=O)c2cc3c(cc21)OCO3", 0.266),
    ("CC(CN(C)C)CN1c2ccccc2CCc2ccccc21 (stereo unspecified)", 0.037),
    ("CN1CCN2c3ncccc3Cc3ccccc3C2C1 (stereo unspecified)", 0.16),
    ("CC(C)NCC(O)COc1cccc2ccccc12 (stereo unspecified)", 0.216),
    ("O=C(CCCN1CCC(O)(c2ccc(Cl)cc2)CC1)c1ccc(F)cc1", 0.124),
]

# input Please supply the value of reported fraction unbound at 6 h for the item Cc1nc2n(c(=O)c1CCN1CCC(c3noc4cc(F)ccc34)CC1)CCCC2
# output 0.163

# input Please supply the value of reported fraction unbound at 6 h for the item CN(C)CCCN1c2ccccc2CCc2ccccc21
# output 0.105

# input Please supply the value of reported fraction unbound at 6 h for the item CNCCC(Oc1ccc(C(F)(F)F)cc1)c1ccccc1 (stereo unspecified)
# output 0.04
